biological target: human DLL3 protein expressed on CHO-K1 recombinant cells (human DLL3 extracellular segment fused to EpCAM transmembrane and intracellular regions) (human) (UniProt Q9NYJ7); assay: FACS, CHO-K1 hDLL3 cells, 20 nM antibody
Sequence (Q9NYJ7 other isoform, or with tags, fused parts or gaps limits assumed): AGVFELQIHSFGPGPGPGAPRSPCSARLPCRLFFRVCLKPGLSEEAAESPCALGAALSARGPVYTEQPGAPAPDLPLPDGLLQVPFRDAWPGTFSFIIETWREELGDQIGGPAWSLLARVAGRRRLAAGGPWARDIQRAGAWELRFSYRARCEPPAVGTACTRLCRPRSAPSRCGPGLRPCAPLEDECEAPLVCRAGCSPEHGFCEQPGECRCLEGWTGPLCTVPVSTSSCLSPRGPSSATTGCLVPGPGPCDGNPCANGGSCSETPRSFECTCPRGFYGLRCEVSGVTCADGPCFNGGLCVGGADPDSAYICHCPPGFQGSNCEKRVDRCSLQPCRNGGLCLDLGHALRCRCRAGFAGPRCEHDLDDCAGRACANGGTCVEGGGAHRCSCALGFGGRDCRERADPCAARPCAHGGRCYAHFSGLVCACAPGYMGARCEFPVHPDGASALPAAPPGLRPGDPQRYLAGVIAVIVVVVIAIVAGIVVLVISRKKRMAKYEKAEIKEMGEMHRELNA
Listed here: items and their measured MFI.

Binder	MFI / MFI
Hab015VL5VH5a-hFc (scFv, part only; not given: scFv linker and human IgG1 Fc, V domains shown, not shown: another chain or arm of the molecule; a dimerising Fc or GST; small tags and cut ends) VL: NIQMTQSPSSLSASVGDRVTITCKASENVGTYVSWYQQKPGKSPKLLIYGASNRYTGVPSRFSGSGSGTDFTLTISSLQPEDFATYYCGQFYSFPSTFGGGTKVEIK VH: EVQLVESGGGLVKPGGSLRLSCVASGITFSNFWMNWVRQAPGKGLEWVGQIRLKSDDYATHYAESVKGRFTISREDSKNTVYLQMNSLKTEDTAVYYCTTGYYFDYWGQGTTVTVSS	12000
Hab015VL4VH5a-hFc (scFv, part only; not given: VL-VH linker and human IgG1 Fc, V domains shown, not shown: another chain or arm of the molecule; a dimerising Fc or GST; small tags and cut ends) VL: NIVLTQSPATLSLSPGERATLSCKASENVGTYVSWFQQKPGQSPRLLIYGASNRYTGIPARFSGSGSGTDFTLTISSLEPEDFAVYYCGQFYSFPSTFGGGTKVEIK VH: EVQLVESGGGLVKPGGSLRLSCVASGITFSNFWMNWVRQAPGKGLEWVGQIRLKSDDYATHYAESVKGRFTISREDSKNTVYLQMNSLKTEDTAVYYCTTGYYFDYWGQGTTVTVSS	12000
Hab015VL4VH6a-hFc (scFv, part only; not given: scFv linker and human IgG1 Fc, V domains shown, not shown: another chain or arm of the molecule; a dimerising Fc or GST; small tags and cut ends) VL: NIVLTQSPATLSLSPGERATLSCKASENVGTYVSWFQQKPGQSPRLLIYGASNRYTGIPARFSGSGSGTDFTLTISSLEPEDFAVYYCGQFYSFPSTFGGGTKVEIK VH: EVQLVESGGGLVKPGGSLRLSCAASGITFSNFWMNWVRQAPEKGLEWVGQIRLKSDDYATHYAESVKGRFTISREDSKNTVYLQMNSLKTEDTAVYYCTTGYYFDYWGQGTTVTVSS	12400
Hab015VL5VH6a-hFc (scFv, part only; not given: scFv linker and human IgG1 Fc, V domains shown, not shown: another chain or arm of the molecule; a dimerising Fc or GST; small tags and cut ends) VL: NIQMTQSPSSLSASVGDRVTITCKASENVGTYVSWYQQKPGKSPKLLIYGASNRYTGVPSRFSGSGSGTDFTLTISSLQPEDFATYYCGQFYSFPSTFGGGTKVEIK VH: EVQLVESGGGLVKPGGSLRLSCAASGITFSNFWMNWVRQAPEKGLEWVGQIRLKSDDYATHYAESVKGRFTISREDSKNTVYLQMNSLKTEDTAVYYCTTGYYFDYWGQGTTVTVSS	10900
Hab009VL2aVH1-hFc (scFv, part only; not given: VL-VH linker and human IgG1 Fc, V domains shown, not shown: another chain or arm of the molecule; a dimerising Fc or GST; small tags and cut ends) VL: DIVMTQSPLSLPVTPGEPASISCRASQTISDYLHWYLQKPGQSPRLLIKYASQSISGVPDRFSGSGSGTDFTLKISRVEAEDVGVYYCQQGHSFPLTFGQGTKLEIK VH: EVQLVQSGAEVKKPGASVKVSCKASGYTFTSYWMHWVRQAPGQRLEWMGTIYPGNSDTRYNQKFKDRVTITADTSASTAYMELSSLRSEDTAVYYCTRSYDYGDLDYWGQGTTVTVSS	12600
BI3 (antibody, human IgG1, kappa, V domains shown) VH: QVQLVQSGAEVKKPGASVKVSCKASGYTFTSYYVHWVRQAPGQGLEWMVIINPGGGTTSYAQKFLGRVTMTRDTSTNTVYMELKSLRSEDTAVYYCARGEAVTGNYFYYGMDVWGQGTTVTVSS VL: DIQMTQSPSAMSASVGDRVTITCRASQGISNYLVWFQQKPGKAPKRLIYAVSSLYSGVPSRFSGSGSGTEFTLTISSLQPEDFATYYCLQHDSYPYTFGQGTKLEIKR	13400
Hab008L1H5-hFc (scFv, part only; not given: VL-VH linker and human IgG1 Fc, V domains shown, not shown: another chain or arm of the molecule; a dimerising Fc or GST; small tags and cut ends) VL: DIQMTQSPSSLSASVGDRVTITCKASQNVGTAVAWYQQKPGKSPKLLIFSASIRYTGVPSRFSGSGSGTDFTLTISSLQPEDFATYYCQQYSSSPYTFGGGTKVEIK VH: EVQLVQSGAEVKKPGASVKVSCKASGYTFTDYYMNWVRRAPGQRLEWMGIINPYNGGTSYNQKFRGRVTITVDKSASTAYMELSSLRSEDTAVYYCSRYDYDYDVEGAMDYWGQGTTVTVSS	7750
Hab013VL2VH2a-hFc (scFv, part only; not given: scFv linker and human IgG1 Fc, V domains shown, not shown: another chain or arm of the molecule; a dimerising Fc or GST; small tags and cut ends) VL: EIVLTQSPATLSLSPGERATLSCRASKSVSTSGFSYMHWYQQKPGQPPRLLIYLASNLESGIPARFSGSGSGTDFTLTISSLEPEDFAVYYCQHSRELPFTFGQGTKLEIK VH: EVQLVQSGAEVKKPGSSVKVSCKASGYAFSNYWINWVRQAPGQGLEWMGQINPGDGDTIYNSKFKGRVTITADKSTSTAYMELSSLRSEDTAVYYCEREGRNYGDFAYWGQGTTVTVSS	16300
Hab009VL1aVH1-hFc (scFv, part only; not given: scFv linker and human IgG1 Fc, V domains shown, not shown: another chain or arm of the molecule; a dimerising Fc or GST; small tags and cut ends) VL: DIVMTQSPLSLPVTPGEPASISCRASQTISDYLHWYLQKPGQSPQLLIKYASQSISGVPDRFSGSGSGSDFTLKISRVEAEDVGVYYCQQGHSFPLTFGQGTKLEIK VH: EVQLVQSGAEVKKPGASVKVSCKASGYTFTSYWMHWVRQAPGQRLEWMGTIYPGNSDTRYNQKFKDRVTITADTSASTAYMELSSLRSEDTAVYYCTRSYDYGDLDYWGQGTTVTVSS	12400

Ref: patent EP4786492A1
